FYI, the data here is from the NIST ThermoML archive (doi:10.1021/je050343i).

Experiment: activity coefficient (dimensionless); of the first substance listed, at infinite dilution; xn = mol fraction of the nth substance listed
Conditions: 330 K; Liquid; Chromatography; x1 = 0
quantity name: activity coefficient

Previously resolved entries follow.
• C/C=C\C [(Z)-2-butene] + C=CC(C)(C)O = 2.05
• C=CC [propene] + C=CC(C)(C)O = 2.05
• C/C=C/C [(E)-2-butene] + C=C(C)CCO = 3.12

Could you tell me activity coefficient for each of these compounds? They are listed below.
1. C=CCC [1-butene] + C=C(C)CCO
2. C=C(C)C [2-methylpropene] + C=CC(C)(C)O
3. C=C(C)C [2-methylpropene] + C=C(C)CCO
4. CCCC [butane] + C=C(C)CCO
5. C=CCC [1-butene] + C=CC(C)(C)O

Response:
1. 3.13
2. 2.15
3. 3.04
4. 3.99
5. 2.2

Could you tell me activity coefficient for each of these compounds? They are listed below.
1. CCC [propane] + C=C(C)CCO
2. COC [dimethyl ether] + C=C(C)CCO
3. C/C=C/C [(E)-2-butene] + C=CC(C)(C)O
4. CCC [propane] + C=CC(C)(C)O
5. CC(C)C [2-methylpropane] + C=C(C)CCO

Response:
[3.7, 1.15, 2.2, 2.54, 4.29]

###

Test: activity coefficient (dimensionless); of the first substance listed, at infinite dilution; xn = mol fraction of the nth substance listed
Details: 249.98 K; Liquid; Chromatography; x1 = 0
Kindly state activity coefficient for each of the entries shown.

• CCCC [butane] + C=CC(C)(C)O = 3.3
• C=CC [propene] + C=CC(C)(C)O = 2.46

Could you tell me activity coefficient for each of these compounds? They are listed below.
1. C=CC=C [1,3-butadiene] + C=CC(C)(C)O
2. CCC [propane] + C=CC(C)(C)O

Response:
2.43
3.08

Could you tell me activity coefficient for each of these compounds? They are listed below.
1. C=C(C)C [2-methylpropene] + C=CC(C)(C)O
2. C=CCC [1-butene] + C=CC(C)(C)O
3. C/C=C/C [(E)-2-butene] + C=CC(C)(C)O
4. CC(C)C [2-methylpropane] + C=CC(C)(C)O

Response:
1: 2.72; 2: 2.74; 3: 2.73; 4: 3.56

###

Assay: activity coefficient (dimensionless); of the first substance listed, at infinite dilution; xn = mol fraction of the nth substance listed
Settings: 289.99 K; Liquid; Chromatography; x1 = 0
Kindly state activity coefficient for each of the entries shown.
Give bare numbers.

- CCC [propane] + C=CC(C)(C)O: 2.86

Could you tell me activity coefficient for each of these compounds? They are listed below.
1. CCCC [butane] + C=C(C)CCO
2. C=CCC [1-butene] + C=C(C)CCO
3. C=C(C)C [2-methylpropene] + C=CC(C)(C)O
4. C/C=C/C [(E)-2-butene] + C=CC(C)(C)O
5. C/C=C\C [(Z)-2-butene] + C=CC(C)(C)O
6. CCC [propane] + C=C(C)CCO

Response:
4.41
3.4
2.47
2.51
2.36
4.1

###

Kindly state activity coefficient for each of the entries shown.
Experiment: activity coefficient (dimensionless); of the first substance listed, at infinite dilution; xn = mol fraction of the nth substance listed
Conditions: 289.99 K; Liquid; Chromatography; x1 = 0
Numbers only.

Previously resolved entries follow.
• CC(C)C [2-methylpropane] + C=CC(C)(C)O = 3.27
• CC(C)C [2-methylpropane] + C=C(C)CCO = 4.73
• C=CCC [1-butene] + C=CC(C)(C)O = 2.52
• C=CC=C [1,3-butadiene] + C=CC(C)(C)O = 2.22

Could you tell me activity coefficient for each of these compounds? They are listed below.
1. C=CC [propene] + C=C(C)CCO
2. CCCC [butane] + C=CC(C)(C)O
3. CCCl [chloroethane] + C=CC(C)(C)O
4. COC [dimethyl ether] + C=CC(C)(C)O
5. C=CC [propene] + C=CC(C)(C)O
6. C=C(C)C [2-methylpropene] + C=C(C)CCO

Response:
[2.99, 3.08, 1.96, 0.7, 2.3, 3.32]

Could you tell me activity coefficient for each of these compounds? They are listed below.
1. CC(F)F [1,1-difluoroethane] + C=CC(C)(C)O
2. C=CC=C [1,3-butadiene] + C=C(C)CCO

Response:
3.39
2.65

###

Assay: activity coefficient (dimensionless); of the first substance listed, at infinite dilution; xn = mol fraction of the nth substance listed
Details: 309.99 K; Liquid; Chromatography; x1 = 0
Kindly state activity coefficient for each of the entries shown.
Numbers only.

Previously resolved entries follow.
• CC(C)C [2-methylpropane] + C=C(C)CCO = 4.54
• CCCC [butane] + C=C(C)CCO = 4.18
• C/C=C/C [(E)-2-butene] + C=C(C)CCO = 3.27
• C/C=C\C [(Z)-2-butene] + C=C(C)CCO = 2.9
• C=C(C)C [2-methylpropene] + C=C(C)CCO = 3.21
• C=CCC [1-butene] + C=CC(C)(C)O = 2.37
• COC [dimethyl ether] + C=C(C)CCO = 1.17

Prompt: I'd like to know its activity coefficient. The molecule in question is C=CCC [1-butene] + C=C(C)CCO
Response: 3.28

###

Assay: activity coefficient (dimensionless); of the first substance listed, at infinite dilution; xn = mol fraction of the nth substance listed
Conditions: 270.04 K; Liquid; Chromatography; x1 = 0
Kindly state activity coefficient for each of the entries shown.
One number for each entry.

Previously resolved entries follow.
• C/C=C/C [(E)-2-butene] + C=C(C)CCO = 3.42
• C=C(C)C [2-methylpropene] + C=C(C)CCO = 3.41
• C=CC [propene] + C=C(C)CCO = 3.04

Okay, now this compound:
Prompt: I'd like to know its activity coefficient. The compound in question is C=CCC [1-butene] + C=C(C)CCO
Response: 3.47
